- measurement_protocol: MTT cell viability and cytotoxicity assay
- Format: cell-based
- reported_conditions: human, TZM-bl cells, 48 h, triplicate
experimental_readout: CC50 at 48 h (µg/mL)
Reply with just the number (in µg/mL).

Record Cc1cn([C@H]2C[C@H](N=[N+]=[N-])[C@@H](CO)O2)c(=O)[nH]c1=O [Azidothymidine, azidothymidine] , field CC50 at 48 h: 385

----------
- measurement_protocol: MTT cell viability and cytotoxicity assay
- Type: cell-based
- reported_conditions: human, TZM-bl cells
experimental_readout: viability at 48 h

Record Cc1cn([C@H]2C[C@H](N=[N+]=[N-])[C@@H](CO)O2)c(=O)[nH]c1=O , field viability at 48 h: > 80%
